src = patent US9335320B2

Test system: WSU-DLCL2
Assay Name: CellTiter-Glo cell proliferation assay, WSU-DLCL2
Experimental Conditions: Homo sapiens, WSUDLCL2
Assay Metric: pEC50
Entry type: numeric. Quantity: pEC50, the -log10 of concentration in molar units.

Q. What value of pEC50 has been recorded for this entry: CS(=O)(=O)N1CCN(Cc2cc3nc(-c4cccc5[nH]ncc45)nc(N4CCOCC4)c3s2)CC1
A. 6.89

----------
Test system: EJM
Assay Name: CellTiter-Glo cell proliferation assay, EJM
Type: cell-based
Experimental Conditions: Homo sapiens, read-out: EC50 (μM) GDC-0941 (single agent), Table 4
Assay Metric: EC50 (µM)
Just the number please, in µM, no unit attached.

Q. Find EC50 (EJM) for the entry CS(=O)(=O)N1CCN(Cc2cc3nc(-c4cccc5[nH]ncc45)nc(N4CCOCC4)c3s2)CC1
A. 1.5

----------
Tested on: SUDHL5
Assay Name: CellTiter-Glo cell proliferation assay, SUDHL5
Type: cell-based
Experimental Conditions: Homo sapiens, SU-DHL-5; SUDHL5 (DLBCL), single agent, Table 2
Assay Metric: EC50 (nM)
Just the number please, in nM, no unit attached.

Q. What value of EC50 has been recorded for this entry: CS(=O)(=O)N1CCN(Cc2cc3nc(-c4cccc5[nH]ncc45)nc(N4CCOCC4)c3s2)CC1 [GDC-0941]
A. 80

----------
Test system: RI1
Assay Name: CellTiter-Glo cell proliferation assay, RI1
Type: cell-based
Experimental Conditions: Ri-1; RI1 (B-NHL), single agent, Table 2
Assay Metric: EC50 (nM)
Just the number please, in nM, no unit attached.

Q. What value of EC50 has been recorded for this entry: CS(=O)(=O)N1CCN(Cc2cc3nc(-c4cccc5[nH]ncc45)nc(N4CCOCC4)c3s2)CC1 [GDC-0941]
A. 40
